Some binders, each annotated with its measured IC50.
Target: T1, recombinant human nectin-4 (human, UniProt Q96NY8 32-349)
T1 chain: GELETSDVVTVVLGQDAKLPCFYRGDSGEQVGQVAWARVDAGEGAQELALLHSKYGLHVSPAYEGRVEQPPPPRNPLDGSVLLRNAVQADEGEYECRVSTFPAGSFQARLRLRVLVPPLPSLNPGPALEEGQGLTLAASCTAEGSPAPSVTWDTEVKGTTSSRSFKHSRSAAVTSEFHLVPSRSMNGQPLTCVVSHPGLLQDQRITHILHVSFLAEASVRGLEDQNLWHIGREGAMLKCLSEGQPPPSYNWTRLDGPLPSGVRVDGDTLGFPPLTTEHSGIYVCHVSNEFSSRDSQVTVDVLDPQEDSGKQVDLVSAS
Test: FP
Numbered stars: 1 amine (or outer) side, 2 acyl side, 3 side chain; on linkers, the order of the positions; unused ones are H or OH. Bridge positions count the residues as written; N and C are the ends. Square brackets hold non-standard residues; d marks the D form. * marks the point of attachment. (R)‑NODAGA = O=C(O)CN1CCN(CC(=O)O)CCN([C@H](CCC(=O)*)C(=O)O)CC1; TATA = O=C(CC[*:1])N1CN(C(=O)CC[*:2])CN(C(=O)CC[*:3])C1; 1Nal = N[C@@H](Cc1cccc2ccccc12)C(=O)O; Hyp = O=C(O)[C@@H]1C[C@@H](O)CN1; hArg = N=C(N)NCCCC[C@H](N)C(=O)O; Met(O) = CS(=O)CC[C@H](N)C(=O)O; Nle = CCCC[C@H](N)C(=O)O
Respond with the bare value in nM.

In the examples that follow, each entry is paired with its recorded IC50.
-- ask Would you kindly share the measured IC50 for {(R)‑NODAGA}-CP[1Nal][dD]C[Nle][hArg]DWSTP[Hyp]WC-NH2 (linker 1-5-15 via TATA) [3a] ?
-- reply 41.6

-- ask Would you kindly share the measured IC50 for {(R)‑NODAGA}-CP[1Nal][dD]C[Met(O)][hArg]DWSTP[Hyp]WC-NH2 (linker 1-5-15 via TATA) [2] ?
-- reply 568

Could you now look at the following binder, please?
-- ask Would you kindly share the measured IC50 for Ac-CP[1Nal][dD]C[Nle][hArg]DWSTP[Hyp]WC-NH2 (linker 1-5-15 via TATA) [3b] ?
-- reply 31.5
